# studyTarget: human Nav1.5 channels stably expressed in HEK 293 cells (Homo sapiens)
# Construct: expressed in transfected cells
# Sequence (Q14524 whole entry): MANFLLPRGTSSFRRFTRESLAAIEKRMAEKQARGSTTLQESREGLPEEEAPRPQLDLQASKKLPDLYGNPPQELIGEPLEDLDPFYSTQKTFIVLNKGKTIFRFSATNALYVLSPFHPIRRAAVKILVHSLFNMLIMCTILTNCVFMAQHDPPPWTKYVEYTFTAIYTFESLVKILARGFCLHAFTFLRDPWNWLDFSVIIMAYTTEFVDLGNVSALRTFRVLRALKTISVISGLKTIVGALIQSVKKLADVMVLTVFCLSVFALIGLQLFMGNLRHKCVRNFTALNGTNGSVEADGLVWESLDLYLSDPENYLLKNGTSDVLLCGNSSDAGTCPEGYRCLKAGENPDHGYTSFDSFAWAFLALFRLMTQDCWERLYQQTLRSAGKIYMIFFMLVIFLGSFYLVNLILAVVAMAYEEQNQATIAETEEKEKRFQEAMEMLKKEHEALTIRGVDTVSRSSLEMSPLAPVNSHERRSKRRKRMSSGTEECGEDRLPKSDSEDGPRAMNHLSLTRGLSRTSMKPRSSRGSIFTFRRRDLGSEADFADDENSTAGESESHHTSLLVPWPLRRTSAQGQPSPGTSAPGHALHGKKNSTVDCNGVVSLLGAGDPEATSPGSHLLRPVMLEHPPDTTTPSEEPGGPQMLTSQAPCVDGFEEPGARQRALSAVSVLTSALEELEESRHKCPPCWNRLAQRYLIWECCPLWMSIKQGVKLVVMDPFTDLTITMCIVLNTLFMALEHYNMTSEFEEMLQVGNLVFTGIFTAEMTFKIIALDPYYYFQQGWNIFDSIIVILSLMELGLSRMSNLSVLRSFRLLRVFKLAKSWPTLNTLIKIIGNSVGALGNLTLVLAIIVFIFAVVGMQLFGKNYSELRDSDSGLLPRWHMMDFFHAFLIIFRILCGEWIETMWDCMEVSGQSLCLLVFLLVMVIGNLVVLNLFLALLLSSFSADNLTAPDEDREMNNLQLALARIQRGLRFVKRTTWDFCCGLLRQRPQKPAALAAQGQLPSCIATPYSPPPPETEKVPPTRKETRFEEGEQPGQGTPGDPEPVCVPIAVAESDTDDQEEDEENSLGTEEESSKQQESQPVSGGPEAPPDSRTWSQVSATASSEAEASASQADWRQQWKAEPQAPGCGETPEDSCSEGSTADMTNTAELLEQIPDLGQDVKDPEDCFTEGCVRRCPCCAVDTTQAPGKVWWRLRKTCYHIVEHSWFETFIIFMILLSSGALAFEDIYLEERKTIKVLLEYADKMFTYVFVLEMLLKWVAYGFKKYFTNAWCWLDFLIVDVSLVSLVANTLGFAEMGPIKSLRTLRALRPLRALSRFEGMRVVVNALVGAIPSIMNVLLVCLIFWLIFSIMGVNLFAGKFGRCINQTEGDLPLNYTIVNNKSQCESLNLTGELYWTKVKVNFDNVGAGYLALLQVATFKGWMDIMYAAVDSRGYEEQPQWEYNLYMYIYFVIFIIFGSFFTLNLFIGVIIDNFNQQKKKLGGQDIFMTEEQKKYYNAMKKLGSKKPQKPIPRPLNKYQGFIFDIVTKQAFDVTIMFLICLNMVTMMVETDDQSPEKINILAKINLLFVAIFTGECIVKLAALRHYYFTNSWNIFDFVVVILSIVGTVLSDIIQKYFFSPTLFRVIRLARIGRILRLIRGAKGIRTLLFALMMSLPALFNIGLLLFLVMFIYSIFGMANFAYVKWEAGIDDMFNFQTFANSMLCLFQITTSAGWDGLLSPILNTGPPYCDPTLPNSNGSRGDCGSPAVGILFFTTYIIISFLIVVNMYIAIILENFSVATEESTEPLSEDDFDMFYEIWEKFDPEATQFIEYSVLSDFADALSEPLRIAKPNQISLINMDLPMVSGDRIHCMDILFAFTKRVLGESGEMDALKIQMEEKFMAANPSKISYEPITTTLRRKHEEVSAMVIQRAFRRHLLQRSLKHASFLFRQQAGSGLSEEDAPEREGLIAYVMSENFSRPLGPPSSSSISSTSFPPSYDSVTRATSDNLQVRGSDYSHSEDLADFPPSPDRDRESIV
# measurementProtocol: PatchXpress 7000 automated patch-clamp, sodium current
# Type: cell-based
# appliedConditions: selectivity over Nav1.5
# Method: To measure state and use-dependent sodium channel inhibition, test compounds were further characterized in an automated PatchXpress® assay (Molecular Devices). Two voltage-clamp protocols were used. […] For all electrophysiology experiments, offline analysis was used to correct for current rundown and to determine percent inhibition as a function of drug concentration. IC50 values were determined by fitting to the Hill equation.
Binarize ratio of Nav 1.5:Nav 1.7 potency, determined by PatchXpress measurement at 100; below is yes (1), at or above is no (0).

{"columns": ["compound", "categoryLabel"],
 "data": [
  ["O=c1oc2cc(S(=O)(=O)Nc3ncns3)c(F)cc2n1Cc1cccc2c1CC(N1CCCC1C(F)(F)F)CC2 (racemic) [Compound 23-11]", "yes (1)"],
  ["CC(c1cccc2c1CN(S(C)(=O)=O)CC2)n1c(=O)oc2cc(S(=O)(=O)Nc3ncns3)c(Cl)cc21 (racemic) [Compound 36-2]", "yes (1)"],
  ["C[C@H](c1ccccc1C#CCN1CCC1)n1c(=O)oc2cc(S(=O)(=O)Nc3ncns3)c(F)cc21 [Compound 17-18]", "no (0)"],
  ["O=c1oc2cc(S(=O)(=O)Nc3ncns3)c(F)cc2n1Cc1cccc2c1CC(NCC(F)(F)F)CC2 (racemic) [Compound 23-7]", "no (0)"],
  ["Nc1cc2c(Cn3c(=O)oc4cc(S(=O)(=O)Nc5ncns5)c(F)cc43)cccc2cn1 [Compound 26-5]", "no (0)"],
  ["NC1CCc2cccc(Cn3c(=O)oc4cc(S(=O)(=O)Nc5ncns5)c(F)cc43)c2C1 (racemic) [Compound 20-4]", "no (0)"],
  ["C[C@@H](c1cccc2cncn12)n1c(=O)oc2cc(S(=O)(=O)Nc3ncns3)c(F)cc21 [Compound 15-4]", "yes (1)"],
  ["C[C@H](c1ccccc1C#Cc1cncn1C)n1c(=O)oc2cc(S(=O)(=O)Nc3ncns3)c(F)cc21 [Compound 17-8]", "yes (1)"]
]}

In the record for C[C@H](c1ccccc1CCCN)n1c(=O)oc2cc(S(=O)(=O)Nc3ncns3)c(F)cc21 [Compound 33-7] , is ratio of Nav 1.5:Nav 1.7 potency, determined by PatchXpress measurement less than 100?
no (0)

Same lookup for NC1CCc2cccc(Cn3c(=O)oc4cc(S(=O)(=O)Nc5ncns5)ccc43)c2C1 (single isomer, unassigned) [Compound 23-14] , please.
no (0)

Same lookup for O=c1oc2cc(S(=O)(=O)Nc3ncns3)ccc2n1Cc1ccccc1-c1cccc2c1CNCC2 [Compound 3-4] , please.
no (0)

Same lookup for CNC1CCc2cccc(Cn3c(=O)oc4cc(S(=O)(=O)Nc5ncns5)ccc43)c2C1 (racemic) [Compound 23-18] , please.
no (0)

Same lookup for C[C@@H](c1ccccc1C1CNC1)n1c(=O)oc2cc(S(=O)(=O)Nc3nccs3)c(F)cc21 [Compound 43-20] , please.
yes (1)

The measurements presented in this section are drawn from patent US9273040B2.
